Molecular target: CTLA-4 (human)
Sequence (chain, as listed by the source): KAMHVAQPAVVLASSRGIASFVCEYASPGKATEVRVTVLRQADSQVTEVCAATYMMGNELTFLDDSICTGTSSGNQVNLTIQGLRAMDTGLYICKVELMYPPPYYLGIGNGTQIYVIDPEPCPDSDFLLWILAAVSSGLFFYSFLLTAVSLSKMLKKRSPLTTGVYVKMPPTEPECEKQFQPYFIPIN
Test: flow cytometry, cells expressing CTLA-4
In this section, each of the binders is paired with its reported MFI.
Give the quantity in MFI, number only.

Example entries begin here.
## Task Item variant CD80 R29V/M43Q/E81R/L85I/K89R/D90L/A91E/F92N/K93Q/R94G (Fc fusion) VIHVTKEVKEVATLSCGHNVSVEELAQTVIYWQKEKKMVLTMQSGDMNIWPEYKNRTIFDITNNLSIVILALRPSDEGTYRCVVIKYERLENQGEHLAEVTLSVKADFPTPSISDFEIPTSNIRRIICSTSGGFPEPHLSWLENGEELNAINTTVSQDPETELYAVSSKLDFNMTTNHSFMCLIKYGHLRVNQTFNWNTTKQEHFPDN : provide MFI
## Result 996

## Task Give MFI for variant CD80 A91G/F92L/F108L/I118V/T120S (Fc fusion) VIHVTKEVKEVATLSCGHNVSVEELAQTRIYWQKEKKMVLTMMSGDMNIWPEYKNRTIFDITNNLSIVILALRPSDEGTYECVVLKYEKDGLKREHLAEVTLSVKADLPTPSISDFEVPSSNIRRIICSTSGGFPEPHLSWLENGEELNAINTTVSQDPETELYAVSSKLDFNMTTNHSFMCLIKYGHLRVNQTFNWNTTKQEHFPDN
## Result 128

## Task Consider the binder variant CD80 K36G/K37Q/M38I/L40M (Fc fusion) VIHVTKEVKEVATLSCGHNVSVEELAQTRIYWQKEGQIVMTMMSGDMNIWPEYKNRTIFDITNNLSIVILALRPSDEGTYECVVLKYEKDAFKREHLAEVTLSVKADFPTPSISDFEIPTSNIRRIICSTSGGFPEPHLSWLENGEELNAINTTVSQDPETELYAVSSKLDFNMTTNHSFMCLIKYGHLRVNQTFNWNTTKQEHFPDN and give its recorded MFI.
## Result 1400

# context switch: different binder, same MFI
## Task Report MFI, nothing else, for this binder: variant CD80 A12V/S15F/Y31H/M38L/T41G/M43L/D90N/T130A/P137L/N149D/N152T (Fc fusion) VIHVTKEVKEVVTLFCGHNVSVEELAQTRIHWQKEKKLVLGMLSGDMNIWPEYKNRTIFDITNNLSIVILALRPSDEGTYECVVLKYEKNAFKREHLAEVTLSVKADFPTPSISDFEIPTSNIRRIICSASGGFPELHLSWLENGEELDAITTTVSQDPETELYAVSSKLDFNMTTNHSFMCLIKYGHLRVNQTFNWNTTKQEHFPDN
## Result 6
